System: PC-3 prostate
assay: NCI tumour cell line growth inhibition, 48 h; in the data active = GI50 below about 0.43 µM; inactive = the rest
Would you mind answering with one of these outcomes? 1.0 = active, 0.0 = inactive

Solved entries:
# compound, discrete.label
measured = [
    ("CC1=C(C(=O)Nc2ccc(Cl)c(Cl)c2)C(c2cccc(O)c2)NC(=S)N1 (stereo not given)", 0.0),
    ("Cc1cccc2c(=O)c3c(sc12)c(NCCN)nc1ccccc13", 0.0),
    ("COc1cccc(-c2cc(NCc3ccc4c(c3)OCO4)nc(N)n2)c1", 1.0),
    ("Cn1cc(C2=C(c3cccc(NCC(O)CO)c3)C(=O)NC2=O)c2cc(Cl)ccc21 (stereo not given)", 0.0),
    ("COc1ccc2cc(C(=O)/C=C/c3ccccc3OC)ccc2c1", 0.0),
]

Ask | What call does the record list for O=CNc1ccc2c(c1)Cc1cc([N+](=O)[O-])ccc1-2 ?
Reply | 0.0

Ask | What call does the record list for CCN(CC)CCCC(C)Nc1ccnc2cc(Cl)c(SCc3ccccc3)cc12 (stereo not given) ?
Reply | 0.0

Ask | What call does the record list for CCCNNC(=O)c1ccc(CNC(=O)/C=C/c2ccccc2)cc1 ?
Reply | 1.0

Ask | What call does the record list for COc1cc2c(/C=C3/C(=O)Nc4c3ccc3ccccc43)c(Cl)[nH]c2cc1C ?
Reply | 1.0

Ask | What call does the record list for COc1ccc(/C=C/C(=O)c2ccc(NC(=O)CSc3nnc(-c4cc(OC)c(OC)c(OC)c4)o3)cc2)cc1 ?
Reply | 0.0

---

Listed here: items and their measured TGI.
Test system: PC-3 prostate
assay: NCI tumour cell line growth inhibition, 48 h

Worked cases, answers included:
# mol, tgt, TGI
measured = [
    ("COc1cc2c3c(n(CCCN4CCOCC4)c(=O)c2cc1OC)-c1cc2c(cc1C3=O)OCO2", "PC-3 prostate", "> 100 µM"),
    ("O=C1C(c2c(O)[nH]c3ccc(S(=O)(=O)N(CCO)CCO)cc23)=Nc2ccccc21", "PC-3 prostate", "> 100 µM"),
    ("C/C(=C\\[C@H]1C[C@@H]([C@@H]2CC[C@]34C[C@]23C=C[C@@H]2[C@@]3(C)CC=C5C[C@@H](c6ccccc6)OC[C@]5(C)[C@@H]3C[C@@H](O)[C@]24C)C(=O)O1)CO", "PC-3 prostate", "> 55.6 µM"),
]

--- query ---
Sample COc1ccc2cc(C(=O)/C=C/c3ccccc3OC)ccc2c1 ; TGI observed: 23.1 µM

---

Test system: OVCAR-8 ovarian
assay: NCI tumour cell line growth inhibition, 48 h; in the data active means GI50 below about 0.43 µM; inactive means the rest
Where a SMILES comes first, the peptide text is derived from it. Bridges are numbered along the chain shown (N, C = ends). Roman numbers before positions name the chains, in order. [ ]: non-standard residue; d: D form. The star is where a group is joined. Heptadecanoyl = CCCCCCCCCCCCCCCCC(=O)*; Phg = N[CH](C(=O)O)c1ccccc1
Would you mind answering with one of these outcomes? active, inactive

Solved entries:
# molecule, tgt, discrete.label
measured = [
    ("COc1cc2c(cc1C)NC(=O)/C2=C/c1c(C)nc2sc(C)cn12", "OVCAR-8 ovarian", "inactive"),
    ("O=C1[C@H](c2ccccc2)C2c3ccccc3CCN12 (stereo partly specified)", "OVCAR-8 ovarian", "inactive"),
    ("C(#Cc1ccccc1C#Cc1ccccn1)c1ccc(OCCCCCCOc2ccc(C#Cc3ccccc3C#Cc3ccccn3)cc2)cc1", "OVCAR-8 ovarian", "inactive"),
]

Ask | What call does the record list for CCCNNC(=O)c1ccc(CNC(=O)/C=C/c2ccccc2)cc1 ?
Reply | active

Ask | What call does the record list for CCCCCCCCCCCCCCCCC(=O)N1CCCC1C(=O)NCC(=O)NC(C(=O)N1CCCC1C(=O)NC(CO)C(=O)NC(Cc1ccc(O)cc1)C(=O)NC(CCCCNC(=O)C1CCCN1C(=O)C(CCCCN)NC(=O)C(CCCCN)NC(=O)C(CCCCN)NC(=O)C(CCCNC(=N)N)NC(=O)C(CCCCN)NC(=O)C(N)C(C)C)C(=O)NC(CC(C)C)C(=O)NC(CCCNC(=N)N)C(=O)N1CCCC1C(=O)NCC(N)=O)c1ccccc1 (stereo unspecified) (I: Heptadecanoyl-PG[Phg]PSYKLRPG-NH2 / II: H-VKRKKKP; amide I:7-II:C; configuration not given here) ?
Reply | inactive

Ask | What call does the record list for Cn1cc(-c2nc(-c3cn(C)c4ncccc34)cs2)c2cc(F)ccc21 ?
Reply | inactive

Ask | What call does the record list for N=c1c2c(=O)n3c(nc2nc2sc4ccc(Cl)cc4n12)-c1ccccc1Sc1ccccc1-3 ?
Reply | inactive

Ask | What call does the record list for O=C(Nc1ncc(Cc2ccc(Cl)cc2)s1)c1ccc2c(c1)OCCO2 ?
Reply | active

Ask | What call does the record list for O=C(CN/C=C\C(=O)c1cc(Cl)ccc1Cl)c1ccccc1 ?
Reply | inactive

Ask | What call does the record list for COc1ccc(-c2oncc2-c2cc(OC)c3c(c2)OCO3)cc1 ?
Reply | inactive

Ask | What call does the record list for COc1ccc(/C=C2\CCCC3=C2N=C2SC=NN2C3c2ccc(OC)c(OC)c2)cc1OC (stereo unspecified) ?
Reply | inactive

Ask | What call does the record list for CN(C)CCOc1cccc(NC2=C(Cl)C(=O)C(Nc3cccc(OCCN(C)C)c3)=C(Cl)C2=O)c1 ?
Reply | inactive

Ask | What call does the record list for COc1ccc2oc(-c3ccc(Cl)cc3)c(N3CCN(C)CC3)c2c1 ?
Reply | inactive

Ask | What call does the record list for Clc1cccc(Cc2cn3cc(-c4ccccc4)nc3s2)c1 ?
Reply | inactive

Ask | What call does the record list for COc1ccc2c(c1)c(=O)oc1cc(OC/C(=N\O)c3ccc(F)cc3)ccc12 ?
Reply | inactive

Ask | What call does the record list for CCN1CCN(Cc2ccc3cc(C(=O)Nc4cc(NC(=O)c5ccc6c(c5)OCCO6)ccc4F)ccc3n2)CC1 ?
Reply | active

---

Listed here: items and their measured TGI.
Tested on: A549 NSCLC
assay: NCI tumour cell line growth inhibition, 48 h

Worked cases, answers included:
# molecule, tgt, TGI
records = [
    ("C[C@H]1[C@H](C)CC[C@]2(C(=O)O)CC[C@]3(C)C(=CC[C@@H]4[C@@]5(C)CC[C@H](OC(=O)/C=C\\c6ccc(O)cc6)C(C)(C)[C@@H]5CC[C@]43C)[C@H]12", "A549 NSCLC", "> 100 µM"),
    ("C#Cc1ccc(-n2c(/C=C/c3ccc4ccccc4n3)nc3ncccc3c2=O)cc1", "A549 NSCLC", "1.83 µM"),
    ("Cc1ccc(S(=O)(=O)C2=C3C(=C(c4ccccc4)c4ccccc43)CN(S(=O)(=O)c3ccc(C)cc3)C2)cc1", "A549 NSCLC", "> 100 µM"),
    ("COC(=O)c1cc(O)ccc1NC(=O)c1ccc(O)cc1", "A549 NSCLC", "> 100 µM"),
    ("N=C(N)c1ccc(-c2ccc(-c3ccc(C(=N)N)cc3)o2)cc1", "A549 NSCLC", "> 100 µM"),
    ("COc1ccc(OC)c2c3c(ncc12)-c1cc2c(cc1C3)OCO2", "A549 NSCLC", "> 100 µM"),
    ("O=CN/C=C/c1ccccc1O", "A549 NSCLC", "> 100 µM"),
    ("Nc1nc(Cl)cc(NCC2(CO)CCC(OCc3ccccc3)C2)n1 (stereo not given)", "A549 NSCLC", "> 100 µM"),
]

Tested system A549 NSCLC; TGI recorded for Clc1cccc(Cc2cn3cc(-c4ccccc4)nc3s2)c1 was > 100 µM

Tested system A549 NSCLC; TGI recorded for O=C(Nc1cc(Cl)cc(Cl)c1)c1ccc(NC2=C(Cl)C(=O)N(Cc3ccccc3)C2=O)cc1 was 32.4 µM

---

System: M14 melanoma
assay: NCI tumour cell line growth inhibition, 48 h; in the data active = GI50 below about 0.43 µM; inactive = the rest
Where a SMILES comes first, the peptide text is derived from it. [ ]: non-standard residue; d: D form. Orn = NCCC[CH](N)C(=O)O
Would you mind answering with one of these outcomes? active, inactive

# compound, discrete.label
rows = [
    ("CC(C)CC1NC(=O)C(CCCN)NC(=O)C(C(C)C)NC(=O)C2CCCN2C(=O)C(Cc2ccccc2)NC(=O)C(CC(C)C)NC(=O)C(CCCN)NC(=O)C(C(C)C)NC(=O)C2CCCN2C(=O)C(Cc2ccccc2)NC1=O (stereo not given) (cyclo(FPV[Orn]LFPV[Orn]L); configuration not given here)", "active"),
    ("Clc1cccc(Cc2cn3cc(-c4ccccc4)nc3s2)c1", "inactive"),
    ("C#CCOc1c(OC)cc(C(=O)/C(C)=C/c2cccc(N=[N+]=[N-])c2)cc1OC", "active"),
    ("Cc1cc(Cl)ccc1Nc1nc(C(F)(F)F)ccc1C(=O)N/N=C/c1ccc(F)cc1", "inactive"),
]

With those in mind, consider the next compound.
Ask | What call does the record list for COc1ccc(/C=C2\CCCC3=C2N=C2SC=NN2C3c2ccc(OC)c(OC)c2)cc1OC (stereo not given) ?
Reply | inactive

The reported numbers originate from PubChem BioAssay (NCI).
